# methodDescription: chemical genetic growth profiling, strain panel (AID 1159580);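 note: tested at 20 µM; growth read once vehicle control cultures reached saturation at 30 °C; 1 = growth at the plate median or of vehicle wells; lower values mean less growth of the strain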
# conditions: S. cerevisiae deletion strains, growth OD, locus YEL061C, strain CIN8 (second series), hits give low values
The campaign covered roughly 5,500 compounds. About 2,000 (36%) were called active. About 18% were inconclusive and are not listed. The list shows a part of the results.
Would you kindly list normalized growth for each of these compounds?
API doc: respond with a numeric literal and nothing else, no unit.

Request: # normalized growth lookup, item O=C(O)c1cc(O)c2c(c1)[C@@H]([C@H]1c3cc(C(=O)O)cc(O)c3C(=O)c3c(O[C@H]4O[C@H](CO)[C@@H](O)[C@H](O)[C@H]4O)cccc31)c1cccc(O[C@H]3O[C@H](CO)[C@@H](O)[C@H](O)[C@H]3O)c1C2=O
Response: 1.05

Request: What measured normalized growth goes with CC(C)CCCC(C)[C@H]1CCC2C3C(=O)C=C4C[C@@H](O)CC[C@]4(C)C3CC[C@@]21C (stereo partly drawn) ?
Response: 1

Request: Could you tell me which normalized growth is on file for CC(=O)O[C@H]1CC[C@@]2(C)C(=CC(=O)C3C4CCC(C(C)CCCC(C)C)[C@@]4(C)CCC32)C1 (stereo partly drawn) ?
Response: 0.995

----------
# methodDescription: chemical genetic growth profiling, strain panel (AID 1159580)
# conditions: S. cerevisiae deletion strains, growth OD, locus YAL013W, strain DEP1
Hit rate of the full screen: of about 5,500 compounds, about 2,000 (36%) were called active. Another 18% or so got no clear call; they are omitted. Cut-off read from the data, not from the text of the source: active = normalized growth mostly below about 0.91 (no sharp cut-off); inconclusive = no clear call, values can overlap the other calls; inactive = mostly above about 0.92. The list shows a part of the results.
Parameter call: string, one of active, inactive

Request: What was the test verdict on C[n+]1ccccc1/C=N/O ?
Response: inactive

Request: Outcome logged for O=S(=O)(Oc1ccc(OCc2ccccc2)cc1)c1cc(Cl)cc(Cl)c1 in this assay:
Response: inactive

Request: Name the outcome recorded for CCOC(=O)CSc1nc2cc(C(F)(F)F)cnc2n1C in the assay.
Response: inactive

Request: How was COC(=O)c1c(OC)cc2c(c1C)Oc1c(Cl)c(O)c(Cl)c(C)c1C(=O)O2 classified in this test?
Response: active

Request: # fetch the recorded call for Nc1ccc(S(=O)(=O)NC(=O)c2ccccc2)cc1 here
Response: inactive

Request: Tell me the assay call for CCCN(CCC)S(=O)(=O)c1ccc(C(=O)O)cc1 please.
Response: inactive

Request: So what was the verdict on COc1c(C)c2c(c(C)c1Cl)Oc1c(Cl)c(OC)c(Cl)c(C)c1C(=O)O2 in this test?
Response: inactive

Request: Hi team, can someone confirm the assay call for Fc1cc(F)cc(COc2cc(Cl)cc(Cl)c2)c1 ?
Response: inactive

Request: Name the outcome recorded for CC(C)CCCC(C)C1CCC2C3C[C@@H](O)[C@@]4(O)C[C@@H](O)CC[C@]4(C)C3CC[C@]12C (some centres not stated) in the assay.
Response: inactive

Request: Per the assay record, what outcome was assigned to C(=C(c1ccccc1)c1ccccc1)N1CCC1 ?
Response: inactive

Request: Would you mind telling me which call this test gave NC(Cn1ccc(=O)c(O)c1)C(=O)O (configuration not stated) ?
Response: inactive

Request: I would be grateful if you could indicate the recorded call for O=C(O)c1ccc(S(=O)(=O)N(Cl)Cl)cc1 .
Response: inactive

----------
# methodDescription: chemical genetic growth profiling, strain panel (AID 1159580)
# conditions: S. cerevisiae deletion strains, growth OD, locus YGL248W, strain PDE1, hits give low values
Hit rate of the full screen: of about 5,500 compounds, about 2,000 (36%) were called active. Another 18% or so got no clear call; they are omitted. The list shows a part of the results.
metricName: normalized growth
Keep it simple and answer with nothing but the number.

Request: Query: normalized growth; subject: O=C(O)c1cc(O)c2c(c1)[C@@H]([C@H]1c3cc(C(=O)O)cc(O)c3C(=O)c3c(O[C@H]4O[C@H](CO)[C@@H](O)[C@H](O)[C@H]4O)cccc31)c1cccc(O[C@H]3O[C@H](CO)[C@@H](O)[C@H](O)[C@H]3O)c1C2=O
Response: 1.02

Request: Which normalized growth value is on record for COC(=O)/C(=C1\OC(=O)C(c2ccccc2)=C1O)c1ccccc1 ?
Response: 1

Request: Looking for the measured normalized growth of COC(=O)c1c(C)c2c(c(C)c1O)OC(=O)c1c(C)c(Cl)c(O)c(Cl)c1O2 , can you help?
Response: 0.983

Request: If you can, please state the reported normalized growth value of N=C(N)N .
Response: 1

Request: Bench note: what normalized growth did COc1c(C)c2c(c(C)c1Cl)Oc1c(Cl)c(OC)c(Cl)c(C)c1C(=O)O2 show?
Response: 1.02

Request: Quick one: normalized growth for NC(Cn1ccc(=O)c(O)c1)C(=O)O (centres undefined) ?
Response: 1.02

Request: I would be grateful if you could share the reported normalized growth for COC(=O)c1c(OC)cc2c(c1C)Oc1c(Cl)c(OC(C)=O)c(Cl)c(C)c1C(=O)O2 .
Response: 1.01

Request: So what's the measured normalized growth for this one? CC1=CC(=O)c2ccccc2C1=O
Response: 0.0439

Request: // lookup normalized growth for CC12CCC(=O)C=C1CCC1C2[C@@H](O)CC2(C)C1CC[C@]2(O)C(=O)COP(=O)(O)O (some centres undefined)
Response: 1

----------
# methodDescription: chemical genetic growth profiling, strain panel (AID 1159580);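 note: tested at 20 µM; growth read once vehicle control cultures reached saturation at 30 °C; 1 = growth at the plate median or of vehicle wells; lower values mean less growth of the strain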
# conditions: S. cerevisiae deletion strains, growth OD, locus YNL307C, strain MCK1, hits give low values
Screen size: about 5,500 compounds; about 2,000 (36%) were called active. About 18% were inconclusive and are not listed. The list shows a part of the results.
metricName: normalized growth

Request: Give its normalized growth value. Item: COc1ccc(C2Sc3ccccc3N(CCN(C)C)C(=O)C2OC(C)=O)cc1 (stereo not drawn)
Response: 1.05 (inactive)

Request: Which normalized growth is listed for O=C(OCc1ccccc1)c1ccccc1 ?
Response: 0.798 (active)

Request: What does the record list as normalized growth for CC(C)CCCC(C)[C@H]1CCC2C3CC=C4CC(=O)CC[C@]4(C)C3CC[C@@]21C (stereo partly drawn) ?
Response: 0.842 (active)

Request: Given CN(C)CCCN1c2ccccc2CCc2ccccc21 , state its recorded normalized growth.
Response: 0.982 (inactive)

Request: I have this molecule here, CN(C)CCCN1c2ccccc2Sc2ccc(C(F)(F)F)cc21 , and I need its recorded normalized growth.
Response: 0.987 (inactive)

Request: May I ask what normalized growth has been recorded for CN(C)CCCN1c2ccccc2Sc2ccccc21 ?
Response: 1.02 (inactive)

Request: So what's the measured normalized growth for this one? CN(C)CCCN1c2ccccc2Sc2ccc(Cl)cc21
Response: 1.01 (inactive)

Request: Returns the measured normalized growth for the input molecule. Input: NCC(N)C(=O)c1ccccc1 (stereo not drawn)
Response: 0.996 (inactive)

----------
Please provide measured normalized growth for the entries that follow.
# methodDescription: chemical genetic growth profiling, strain panel (AID 1159580);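 note: tested at 20 µM; growth read once vehicle control cultures reached saturation at 30 °C; 1 = growth at the plate median or of vehicle wells; lower values mean less growth of the strain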
# conditions: S. cerevisiae deletion strains, growth OD, locus YDL108W, strain KIN28, hits give low values
The campaign covered roughly 5,500 compounds. About 2,000 (36%) were called active. Inconclusive results (about 18%) are left out. Some of the results follow.
The response must contain the number and no unit.

Request: # input compound: Cc1ccc(-c2csc(-c3ccncc3)n2)cc1 ; wanted: its normalized growth
Response: 0.914

Request: Quick one: normalized growth of CC(C)(C)c1cc(C(=O)Nc2ccc3c(c2)OCO3)n(Cc2ccc(F)cc2)n1 ?
Response: 0.986

Request: Endpoint output: normalized growth of Cc1nn(-c2cccc(Cl)c2)c2oc(=O)cc(C(F)(F)F)c12 . Value?
Response: 0.968

Request: Quick check: normalized growth of O=C(Nc1cccc(Cl)c1)O/N=C1\CCCc2occc21 ?
Response: 0.929

Request: Which measured normalized growth value corresponds to CSc1n[nH]c(-c2cc(C(C)(C)C)oc2C)c1C#N ?
Response: 0.937

Request: State the recorded normalized growth for this entry: COc1c(Br)csc1C(=O)O/N=C(/N)c1cc(C(F)(F)F)cc(C(F)(F)F)c1
Response: 0.987

----------
# methodDescription: chemical genetic growth profiling, strain panel (AID 1159580);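 note: tested at 20 µM; growth read once vehicle control cultures reached saturation at 30 °C; 1 = growth at the plate median or of vehicle wells; lower values mean less growth of the strain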
# conditions: S. cerevisiae deletion strains, growth OD, locus YMR263W, strain SAP30, hits give low values
The campaign covered roughly 5,500 compounds. About 2,000 (36%) were called active. About 18% were inconclusive and are not listed. The list shows a part of the results.
Response field label takes 1.0 when normalized growth is strictly below 1 and 0.0 in all other cases.

Request: Given CC(=O)Oc1ccc(C(c2ccc(OC(C)=O)cc2)c2ccccn2)cc1 , is recorded normalized growth strictly lower than 1?
Response: 1.0

Request: Given the entry CSc1sc(C#N)c2c1C(O)CCC2 (stereo unspecified) , would its reported normalized growth be below 1?
Response: 1.0

Request: Input Clc1ccc(Sc2ncnc3ccsc23)cc1 ; condition: normalized growth strictly below 1. Does it hold?
Response: 1.0

Request: Report whether reported normalized growth is lower than 1 (strictly) for Cc1onc(-c2c(Cl)cccc2Cl)c1NC(=O)O/N=C\c1ccc(N(C)C)cc1
Response: 1.0

Request: Lab note: normalized growth threshold 1. Does this molecule come in strictly under it? O=c1[nH]cnc2ccsc12
Response: 0.0

Request: Does the reported normalized growth of the following molecule sit strictly below 1? Nc1ccc2nonc2c1N
Response: 1.0

Request: Strictly below 1 in normalized growth? NCC(=O)c1ccccc1
Response: 0.0

Request: Say whether its normalized growth is strictly beneath 1. Entry: Cn1c(CSc2ccccc2)n[nH]c1=S
Response: 1.0

Request: Is the reported normalized growth for Cc1cc(=O)n(-c2ccc([N+](=O)[O-])cc2)[nH]1 strictly below 1?
Response: 1.0
